The reported numbers originate from PubChem BioAssay (EPA / NIEHS).

# Read-out: HGF (gene 3082)
# protocol_text: LTEA_HepaRG_HGF: Life Technologies and Expression Analysis (LTEA) Assay for Hepatocyte Growth Facto (HGF) using HepaRG (AID 2283505)
# condition_set: mRNA level, 48 h; actives raise or lower the signal
The source made the active and inactive calls. How the source made its calls: active means hit-call score of the fitted dose curve at least 0.9, where 1 is the maximum; inactive means score below 0.9.
quantity: AC50

N#Cc1cc(Br)c(O)c(Br)c1 = 23.9 µM (active)
Fc1ccc(Oc2ccnc3cc(Cl)cc(Cl)c23)cc1 = inactive
O=C(Nc1ccccc1)Nc1ccnc(Cl)c1 = 78 µM (active)
C#CCOS(=O)OC1CCCCC1Oc1ccc(C(C)(C)C)cc1 (configuration not stated) = 20.1 µM (active)
CCCC1COC(Cn2cncn2)(c2ccc(Cl)cc2Cl)O1 (configuration not stated) = 50 µM (active)
COc1ccc(C(c2ccc(OC)cc2)C(Cl)(Cl)Cl)cc1 = inactive
Cc1c(F)c(F)c(COC(=O)C2C(/C=C(\Cl)C(F)(F)F)C2(C)C)c(F)c1F (configuration not stated) = inactive
CON(C)C(=O)Nc1ccc(Cl)c(Cl)c1 = inactive
C=CC1(C)OC(=O)N(c2cc(Cl)cc(Cl)c2)C1=O (configuration not stated) = inactive
CC1COC(Cn2cncn2)(c2ccc(Oc3ccc(Cl)cc3)cc2Cl)O1 (configuration not stated) = inactive

Provide the reported AC50 of each entry below, same order.
1. CCON=C(CC)C1=C(O)CC(c2c(C)cc(C)cc2C)CC1=O (configuration not stated)
2. COC(=O)N(OC)c1ccccc1COc1ccn(-c2ccc(Cl)cc2)n1

result:
["inactive", "inactive"]
